- Experimental system: JAK2 (Homo sapiens, UniProt O60674)
- Sequence (O60674 whole entry, species assumed): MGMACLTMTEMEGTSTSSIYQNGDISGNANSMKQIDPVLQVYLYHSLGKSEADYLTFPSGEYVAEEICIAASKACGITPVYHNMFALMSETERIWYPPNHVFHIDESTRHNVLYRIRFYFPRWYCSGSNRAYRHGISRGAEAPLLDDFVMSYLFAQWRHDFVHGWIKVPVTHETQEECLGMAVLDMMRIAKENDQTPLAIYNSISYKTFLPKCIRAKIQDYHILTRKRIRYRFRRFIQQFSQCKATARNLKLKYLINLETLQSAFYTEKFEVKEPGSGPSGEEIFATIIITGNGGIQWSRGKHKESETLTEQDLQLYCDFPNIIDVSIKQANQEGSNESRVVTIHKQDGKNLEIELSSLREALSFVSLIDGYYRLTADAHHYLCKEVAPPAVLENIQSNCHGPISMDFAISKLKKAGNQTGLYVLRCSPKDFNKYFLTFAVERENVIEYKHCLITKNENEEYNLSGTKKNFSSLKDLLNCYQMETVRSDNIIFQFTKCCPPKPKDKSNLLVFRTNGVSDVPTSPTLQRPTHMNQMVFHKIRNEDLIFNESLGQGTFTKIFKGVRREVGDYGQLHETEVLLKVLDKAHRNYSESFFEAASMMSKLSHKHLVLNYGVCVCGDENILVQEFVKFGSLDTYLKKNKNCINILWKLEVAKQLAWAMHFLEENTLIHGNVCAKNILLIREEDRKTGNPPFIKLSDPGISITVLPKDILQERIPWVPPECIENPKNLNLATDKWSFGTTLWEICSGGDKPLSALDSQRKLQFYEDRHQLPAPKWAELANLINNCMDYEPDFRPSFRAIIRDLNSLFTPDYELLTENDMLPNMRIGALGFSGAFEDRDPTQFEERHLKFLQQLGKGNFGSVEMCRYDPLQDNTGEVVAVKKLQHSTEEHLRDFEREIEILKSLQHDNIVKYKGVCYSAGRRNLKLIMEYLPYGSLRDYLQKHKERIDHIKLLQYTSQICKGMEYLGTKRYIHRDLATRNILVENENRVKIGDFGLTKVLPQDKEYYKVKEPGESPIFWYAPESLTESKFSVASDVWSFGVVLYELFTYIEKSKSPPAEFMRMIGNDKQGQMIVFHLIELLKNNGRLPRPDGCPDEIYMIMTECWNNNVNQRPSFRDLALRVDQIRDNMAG
- Method notes: JAK2 Inhibition Assay
- Assay type: biochemical
- Test parameters: 5 nM JAK-2 enzyme, 15 μM poly(Glu)4Tyr, 12 μM ATP; kind of constant not given
Readout kind: JAK2 (μM), inhibition data

Use the examples below as a reference point.
-- ask Record request: JAK2 (μM), inhibition data value, item `CC[C@](C)(Nc1nc(-c2c[nH]c3ncc(Cl)cc23)ncc1F)C(=O)NCC(F)(F)F`
-- reply 0.001 µM

-- ask Quick check: JAK2 (μM), inhibition data of `CC(C)(Nc1nc(-c2c[nH]c3ncc(Cl)cc23)ncc1F)C(=O)NCC(F)(F)F` ?
-- reply 0.001 µM

Let's switch to this compound now.
-- ask Reported JAK2 (μM), inhibition data for `CC(C)[C@](C)(Nc1ccnc(-c2c[nH]c3ncc(Cl)cc23)n1)C(=O)NCC(F)(F)F` : what is it?
-- reply 0.0007 µM

meta.source: patent US20140243273A1
